# TARGET SYSTEM: C5a anaphylatoxin chemotactic receptor 1 (Homo sapiens, UniProt P21730)
# Sequence (P21730 whole entry): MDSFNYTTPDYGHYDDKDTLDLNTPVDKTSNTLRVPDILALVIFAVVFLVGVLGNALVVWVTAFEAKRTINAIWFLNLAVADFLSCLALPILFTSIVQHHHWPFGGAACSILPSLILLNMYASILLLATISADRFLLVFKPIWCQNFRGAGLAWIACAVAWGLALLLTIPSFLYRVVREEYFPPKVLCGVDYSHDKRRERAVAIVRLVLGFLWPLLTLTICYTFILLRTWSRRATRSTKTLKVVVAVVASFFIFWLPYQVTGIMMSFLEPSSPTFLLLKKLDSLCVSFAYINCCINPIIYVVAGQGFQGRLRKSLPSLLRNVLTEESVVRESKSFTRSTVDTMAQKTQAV
pIC50: −log10 of the molar value.
OBSERVATION TYPE: pIC50

Query string: Using the record for `Cc1cccc(OCC(C)C)c1-n1nc2c(c1-c1ccc(NC(N)=O)c(F)c1)CN(c1ncc(Cl)cc1F)CC2` , report its pIC50.
Result string: > 8.30

Turning now to a further compound:
Query string: Using the record for `Cc1cccc(OCC(C)C)c1-n1nc2c(c1-c1ccc(NC(N)=O)cc1)CN(c1cccc(C(C)(C)C)n1)CC2` , report its pIC50.
Result string: > 8.30
